- MEASUREMENT DESCRIPTION: Metabolic stability evaluation, rat liver microsome
- Assay type: in vitro ADME
- CONDITION SET: SD, liver microsomes, pH 7.4; rat liver microsome 0.5 mg/mL, compound 1 μM, NADPH, 37° C.; read-out: RLM CL
PROPERTY MEASURED: microsomal CLint at 1 μM (µL/min/mg)

INSERT INTO measurements (compound, result_units, assay_result) VALUES
  ('[2H]C([2H])([C@H](C)NC(=O)c1cc(C([2H])(O)C([2H])([2H])[2H])[nH]n1)n1ccc(-c2ccc(C#N)c(Cl)c2)n1 (some centres unmarked)', 'µL/min/mg', 7.1),
  ('CC(O)c1cc(C(=O)N[C@@H](C)Cn2ccc(-c3ccc(C#N)c(Cl)c3)n2)[nH]n1 (some centres unmarked) [Darolutamide, reference compound]', 'µL/min/mg', 12.2);
